- MEASURED_TARGET: HLA-A*30:01
- ASSAY_PROTOCOL: IEDB peptide-MHC binding, purified MHC/competitive/radioactivity; filed as Kd, often an IC50 or EC50 that approximates it; bounds were set here for any values at or beyond the usual limits of such assays
- REPORTED_CONDITIONS: source organism: Mammarenavirus tacaribeense
ENDPOINT_NAME: Kd

In [3]: df
Out[3]:
   chain_sequence  measured_target     val
0       FVAAALHNV      HLA-A*30:01  6.1 µM

---

- MEASURED_TARGET: HLA-A*32:01
- ASSAY_PROTOCOL: IEDB peptide-MHC binding, purified MHC/competitive/radioactivity; filed as Kd, often an IC50 or EC50 that approximates it; bounds were set here for any values at or beyond the usual limits of such assays
- REPORTED_CONDITIONS: source organism: Mammarenavirus tacaribeense
ENDPOINT_NAME: Kd

   chain_sequence        val
0       FVAAALHNV  ≥ 77.8 µM

---

- MEASURED_TARGET: HLA-A*26:01
- ASSAY_PROTOCOL: IEDB peptide-MHC binding, purified MHC/competitive/radioactivity; filed as Kd, often an IC50 or EC50 that approximates it; bounds were set here for any values at or beyond the usual limits of such assays
- REPORTED_CONDITIONS: source organism: Dengue virus 3 Martinique/1243/1999
We begin with a simple list: items and their reported Kd.
ENDPOINT_NAME: Kd (µM)

   chain_sequence    val
0       TVITPMLRH   14.3
1       ETQGVTAEI  0.282
2      EPIEGKVVQY   2.73
3      EAILPEYGTL   13.9

---

- MEASURED_TARGET: HLA-A*26:01
- ASSAY_PROTOCOL: IEDB peptide-MHC binding, purified MHC/direct/fluorescence; filed as Kd, often an IC50 or EC50 that approximates it; bounds were set here for any values at or beyond the usual limits of such assays
- REPORTED_CONDITIONS: source organism: Variola virus
ENDPOINT_NAME: Kd

   chain_sequence      val
0       KELENEYYF  ≥ 20 µM

---

- MEASURED_TARGET: HLA-B*27:05
- ASSAY_PROTOCOL: IEDB peptide-MHC binding, purified MHC/direct/fluorescence; filed as Kd, often an IC50 or EC50 that approximates it; bounds were set here for any values at or beyond the usual limits of such assays
- REPORTED_CONDITIONS: source organism: Pseudomonas aeruginosa UCBPP-PA14
pKd: −log10 of the molar value.
ENDPOINT_NAME: pKd

   chain_sequence     val
0       GLGGDASAY  ≤ 4.70

---

- MEASURED_TARGET: HLA-A*02:01
- ASSAY_PROTOCOL: IEDB peptide-MHC binding, purified MHC/competitive/radioactivity; filed as Kd, often an IC50 or EC50 that approximates it; bounds were set here for any values at or beyond the usual limits of such assays
- REPORTED_CONDITIONS: source organism: Vaccinia virus WR
ENDPOINT_NAME: Kd (nM)

>>> df
   chain_sequence  measured_target  val
0      RIEDMFLTSV      HLA-A*02:01   48

---

- MEASURED_TARGET: HLA-B*07:02
- ASSAY_PROTOCOL: IEDB peptide-MHC binding, purified MHC/direct/fluorescence; filed as Kd, often an IC50 or EC50 that approximates it; bounds were set here for any values at or beyond the usual limits of such assays
- REPORTED_CONDITIONS: source organism: Yersinia pestis
pKd: −log10 of the molar value.
ENDPOINT_NAME: pKd

>>> print(df.to_string())
   chain_sequence   val
0       VPRVHNQPQ  7.36
